ELISA signal at 3.125 nM Fab by entry:
# Target: T1, Recombinant Human DLL4 (delta-like protein 4) (human, UniProt Q9NR61 27-524)
# T1 construct: also called rHuman DLL4
# Method Description: ELISA, plate-coated DLL4, Fab 3.125 nM
Reply briefly: the number, and no unit.

Use these answered entries as a reference point.
Notebook: Fab VH1-46_IGHD6-6*01_IGHJ1*01 S102A/S103P/S104F/H111F (APFF) & L6_IGKJ1*01 S28N/S30D/S31H (NDH) (Fab, V domains shown, Fab made in E. coli: VH in plasmid A (CH1, His6 and Flag tags), VL in plasmid C (kappa CL); also called H:APFF & L:NDH; APFF / NDH) VH: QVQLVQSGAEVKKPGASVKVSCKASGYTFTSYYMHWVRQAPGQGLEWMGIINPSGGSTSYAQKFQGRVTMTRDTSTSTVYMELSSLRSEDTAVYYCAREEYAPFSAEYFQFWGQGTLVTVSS VL: EIVLTQSPATLSLSPGERATLSCRASQNVDHYLAWYQQKPGQAPRLLIYDASNRATGIPARFSGSGSGTDFTLTISSLEPEDFAVYYCQQRSNWPPWTFGQGTKVEIKR , ELISA signal at 3.125 nM Fab read as 0.096

Notebook: Fab VH1-46_IGHD6-6*01_IGHJ1*01 S102A/S103P/S104F/H111F (APFF) & L6_IGKJ1*01 S28N/S30D/S31H A55S (Fab, V domains shown, Fab made in E. coli: VH in plasmid A (CH1, His6 and Flag tags), VL in plasmid C (kappa CL); also called H:APFF & L:NDH A55S; APFF / NDH/A55S) VH: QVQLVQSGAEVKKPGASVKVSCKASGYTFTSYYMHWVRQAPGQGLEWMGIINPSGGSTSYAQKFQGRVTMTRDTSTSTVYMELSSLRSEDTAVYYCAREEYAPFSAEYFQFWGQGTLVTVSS VL: EIVLTQSPATLSLSPGERATLSCRASQNVDHYLAWYQQKPGQAPRLLIYDASNRSTGIPARFSGSGSGTDFTLTISSLEPEDFAVYYCQQRSNWPPWTFGQGTKVEIKR , ELISA signal at 3.125 nM Fab read as 0.108

Notebook: Fab VH1-46_IGHD6-6*01_IGHJ1*01 S102A/S103P/S104F/H111F (APFF) & L6_IGKJ1*01 S28N/S30D/S31H S52L (Fab, V domains shown, Fab made in E. coli: VH in plasmid A (CH1, His6 and Flag tags), VL in plasmid C (kappa CL); also called H:APFF & L:NDH S52L; APFF / NDH/S52L) VH: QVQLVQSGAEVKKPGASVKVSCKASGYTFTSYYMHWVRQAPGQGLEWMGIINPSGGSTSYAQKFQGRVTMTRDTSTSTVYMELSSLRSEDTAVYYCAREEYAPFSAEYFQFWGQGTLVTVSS VL: EIVLTQSPATLSLSPGERATLSCRASQNVDHYLAWYQQKPGQAPRLLIYDALNRATGIPARFSGSGSGTDFTLTISSLEPEDFAVYYCQQRSNWPPWTFGQGTKVEIKR , ELISA signal at 3.125 nM Fab read as 0.095

Notebook: Fab VH1-46_IGHD6-6*01_IGHJ1*01 S102A/S103P/S104F/H111F (APFF) & L6_IGKJ1*01 S28N/S30D/S31H A55G (Fab, V domains shown, Fab made in E. coli: VH in plasmid A (CH1, His6 and Flag tags), VL in plasmid C (kappa CL); also called H:APFF & L:NDH A55G; APFF / NDH/A55G) VH: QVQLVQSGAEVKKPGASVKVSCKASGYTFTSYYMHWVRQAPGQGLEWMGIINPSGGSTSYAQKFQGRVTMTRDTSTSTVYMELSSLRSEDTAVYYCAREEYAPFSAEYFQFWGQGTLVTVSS VL: EIVLTQSPATLSLSPGERATLSCRASQNVDHYLAWYQQKPGQAPRLLIYDASNRGTGIPARFSGSGSGTDFTLTISSLEPEDFAVYYCQQRSNWPPWTFGQGTKVEIKR , ELISA signal at 3.125 nM Fab read as 0.093

Notebook: Fab VH1-46_IGHD6-6*01_IGHJ1*01 S102A/S103P/S104F/H111F (APFF) & L6_IGKJ1*01 S28N/S30D/S31H S52T (Fab, V domains shown, Fab made in E. coli: VH in plasmid A (CH1, His6 and Flag tags), VL in plasmid C (kappa CL); also called H:APFF & L:NDH S52T; APFF / NDH/S52T) VH: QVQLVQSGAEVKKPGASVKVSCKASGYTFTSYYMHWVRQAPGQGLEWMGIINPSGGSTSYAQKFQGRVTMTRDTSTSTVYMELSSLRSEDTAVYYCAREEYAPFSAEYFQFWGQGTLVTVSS VL: EIVLTQSPATLSLSPGERATLSCRASQNVDHYLAWYQQKPGQAPRLLIYDATNRATGIPARFSGSGSGTDFTLTISSLEPEDFAVYYCQQRSNWPPWTFGQGTKVEIKR , ELISA signal at 3.125 nM Fab read as 0.099

Let's switch to this binder now.
Notebook: Fab VH1-46_IGHD6-6*01_IGHJ1*01 S102A/S103P/S104F/H111F (APFF) & L6_IGKJ1*01 S28N/S30D/S31H N53H (Fab, V domains shown, Fab made in E. coli: VH in plasmid A (CH1, His6 and Flag tags), VL in plasmid C (kappa CL); also called H:APFF & L:NDH N53H; APFF / NDH/N53H) VH: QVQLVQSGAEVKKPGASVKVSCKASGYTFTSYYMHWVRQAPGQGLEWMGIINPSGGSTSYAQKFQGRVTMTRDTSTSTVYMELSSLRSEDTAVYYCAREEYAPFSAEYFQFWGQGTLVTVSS VL: EIVLTQSPATLSLSPGERATLSCRASQNVDHYLAWYQQKPGQAPRLLIYDASHRATGIPARFSGSGSGTDFTLTISSLEPEDFAVYYCQQRSNWPPWTFGQGTKVEIKR , ELISA signal at 3.125 nM Fab read as 0.089
